Answer each item with its documented IC90.
test system: Human immunodeficiency virus 2; test: Antiviral activity against HIV 2 subtype B clinical isolate expressing 12Q-14R-17G/D-19P-61N-62I-92A protease gene sequence from HIV2 infected patient plasma and PBMC obtained before compound treatment measured after 13 months; format: functional, organism-based; settings: Human immunodeficiency virus 2, subtype B\r\n
Please state the number and follow it with the unit.

Missing value: IC90, Human immunodeficiency virus 2, entry Cc1cccc(C)c1OCC(=O)N[C@@H](Cc1ccccc1)[C@@H](O)C[C@H](Cc1ccccc1)NC(=O)[C@H](C(C)C)N1CCCNC1=O [LOPINAVIR] . Fill in?
200 nM

Under Human immunodeficiency virus 2: IC90 value of CCC[C@@]1(CCc2ccccc2)CC(O)=C([C@H](CC)c2cccc(NS(=O)(=O)c3ccc(C(F)(F)F)cn3)c2)C(=O)O1 [TIPRANAVIR] ?
2600 nM

What value of IC90 on Human immunodeficiency virus 2 does COC(=O)N[C@H](C(=O)N[C@@H](Cc1ccccc1)[C@@H](O)CN(Cc1ccc(-c2ccccn2)cc1)NC(=O)[C@@H](NC(=O)OC)C(C)(C)C)C(C)(C)C [ATAZANAVIR] have?
300 nM

Kindly state the measured IC90 obtained for CC(C)(C)NC(=O)[C@@H]1C[C@@H]2CCCC[C@@H]2CN1C[C@@H](O)[C@H](Cc1ccccc1)NC(=O)[C@H](CC(N)=O)NC(=O)c1ccc2ccccc2n1 [SAQUINAVIR] with Human immunodeficiency virus 2.
300 nM

Give Human immunodeficiency virus 2 IC90 for CC(C)CN(C[C@@H](O)[C@H](Cc1ccccc1)NC(=O)O[C@H]1CCOC1)S(=O)(=O)c1ccc(N)cc1 [AMPRENAVIR]
2800 nM

Recorded IC90 for CC(C)CN(C[C@@H](O)[C@H](Cc1ccccc1)NC(=O)O[C@H]1CO[C@H]2OCC[C@H]21)S(=O)(=O)c1ccc(N)cc1 [DARUNAVIR] with Human immunodeficiency virus 2, please?
50 nM

I'm curious: which IC90 was measured for CC(C)(C)NC(=O)[C@@H]1CN(Cc2cccnc2)CCN1C[C@@H](O)C[C@@H](Cc1ccccc1)C(=O)N[C@H]1c2ccccc2C[C@H]1O [INDINAVIR] tested on Human immunodeficiency virus 2?
2600 nM

Could you share what IC90 was measured for Cc1c(O)cccc1C(=O)N[C@@H](CSc1ccccc1)[C@H](O)CN1C[C@H]2CCCC[C@H]2C[C@H]1C(=O)NC(C)(C)C [NELFINAVIR] , tested on Human immunodeficiency virus 2?
800 nM

----------
system: Human immunodeficiency virus 2; assay: Antiviral activity against HIV 2 subtype A clinical isolate expressing 10I-40D-43I-70K-82F-84V-85L-89V-90M-91T/L-98N/K protease gene sequence from HIV2 infected patient plasma and PBMC obtained at T1 during compound treatment measured after 13 months; format: functional, organism-based; details: Human immunodeficiency virus 2, subtype A
Hi there, I'd appreciate the recorded IC90 for every entry that follows.
Return type: number; implicit unit µM.

Could you tell me which IC90 is on file for CCC[C@@]1(CCc2ccccc2)CC(O)=C([C@H](CC)c2cccc(NS(=O)(=O)c3ccc(C(F)(F)F)cn3)c2)C(=O)O1 [TIPRANAVIR] ?
16

I have this compound here, CC(C)CN(C[C@@H](O)[C@H](Cc1ccccc1)NC(=O)O[C@H]1CO[C@H]2OCC[C@H]21)S(=O)(=O)c1ccc(N)cc1 [DARUNAVIR] , and I need its recorded IC90.
2.4

GET /values?readout=IC90&item= COC(=O)N[C@H](C(=O)N[C@@H](Cc1ccccc1)[C@@H](O)CN(Cc1ccc(-c2ccccn2)cc1)NC(=O)[C@@H](NC(=O)OC)C(C)(C)C)C(C)(C)C [ATAZANAVIR]
1.3

Query (compound): CC(C)CN(C[C@@H](O)[C@H](Cc1ccccc1)NC(=O)O[C@H]1CCOC1)S(=O)(=O)c1ccc(N)cc1 [AMPRENAVIR] ; field requested: IC90
96

# IC90 lookup, item CC(C)(C)NC(=O)[C@@H]1CN(Cc2cccnc2)CCN1C[C@@H](O)C[C@@H](Cc1ccccc1)C(=O)N[C@H]1c2ccccc2C[C@H]1O [INDINAVIR]
51

Look at this compound and give its reported IC90. CC(C)(C)NC(=O)[C@@H]1C[C@@H]2CCCC[C@@H]2CN1C[C@@H](O)[C@H](Cc1ccccc1)NC(=O)[C@H](CC(N)=O)NC(=O)c1ccc2ccccc2n1 [SAQUINAVIR]
51

Give the measured IC90 of Cc1cccc(C)c1OCC(=O)N[C@@H](Cc1ccccc1)[C@@H](O)C[C@H](Cc1ccccc1)NC(=O)[C@H](C(C)C)N1CCCNC1=O [LOPINAVIR] .
0.8
